TESTED_ON: T1, recombinant mouse soluble gpNMB (recombinant mouse gpNMB-FLAG-His) (mouse, UniProt Q99P91 23-502)
T1 sequence: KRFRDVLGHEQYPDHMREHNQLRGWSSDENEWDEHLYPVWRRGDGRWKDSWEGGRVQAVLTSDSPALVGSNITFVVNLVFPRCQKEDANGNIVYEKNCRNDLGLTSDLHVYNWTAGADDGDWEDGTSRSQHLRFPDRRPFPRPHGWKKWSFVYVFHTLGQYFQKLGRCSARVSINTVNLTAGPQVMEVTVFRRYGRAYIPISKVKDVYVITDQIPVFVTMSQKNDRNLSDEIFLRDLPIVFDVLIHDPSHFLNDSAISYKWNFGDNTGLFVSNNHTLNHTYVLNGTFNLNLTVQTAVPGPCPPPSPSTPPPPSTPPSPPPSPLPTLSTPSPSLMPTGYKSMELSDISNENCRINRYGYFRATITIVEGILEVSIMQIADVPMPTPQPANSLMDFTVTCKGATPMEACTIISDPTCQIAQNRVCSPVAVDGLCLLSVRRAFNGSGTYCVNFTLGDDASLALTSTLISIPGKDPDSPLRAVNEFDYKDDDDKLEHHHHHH
ASSAY_NAME: SPR, antibody 100 nM over captured gpNMB-FLAG-His, 25C
MEASURED_ENDPOINT: pKd
pKd is a log-scale quantity: -log10 of the concentration expressed in molar.

See these solved cases before continuing.
>  <BINDER>
GPN18-4 (antibody, V domains shown, monoclonal with mouse IgG constant regions) VH: QVQLQQSGAELTKPGTSVKMSCKASGYTLSSYWMNWIKQRPGQGLEWIGTINPSNNYTAYNLKFKDKAMLTADKSSSTAYMQLSSLTSEDSAVYYCATWGYWGQGTTLTVSS VL: DIVMTQSHKFMSTSVGDRVSITCKASQDVSTAVAWHQQKPGQPPKLLIYSASYRYTGVPDRFTGSGSGTDFTFTISSVQTEDLAIYYCQHHYTTTWTFGGGTKLEIR

>  <NUMBER>
8.42

$$$$
>  <BINDER>
GPN09-1 (antibody, V domains shown, monoclonal with mouse IgG constant regions) VH: QVQLKASGPGLVQPSQTLSLTCTVSGLSLTSININWIRQPPGKGLEWMGVIWSDGDTDFNSAVKSRLSISRDTSKSQVFLNMNSLQTEDTAMYFCARGIRDWGQGVMVTVSS VL: DIVMTQTPLSLSVAIGQSASISCKSSQSLKYSDGKTYLNWVFQSPGQSPKRLIYQVSKLDSGVPDRFSGTGSETDFTLKISRVEAEDLGVYYCCQGSYSPHTFGSGTKLEIK

>  <NUMBER>
8.59

$$$$

Next:
// query pKd value for entry GPN05-1 (antibody, V domains shown, monoclonal with mouse IgG constant regions) VH: QVQLQQSGAELVRPGTSVKVSCKASGYAFSNHLIEWVKQRPGQGLEWIGVINPGSGGTNYIEKFKGKATLTADKSSSTAYMQLSSLTSDDSAVYFCARGANWDVGFAYWGQGTLVTVSA VL: EIQMTQSPSSMSASLGDRITITCQATQDIVKNLNWYQQKPGKPPSFLIYYATELAEGVPSRFSGSGSGSDFSLTISNLESEDFADYYCLQFHEFPRTFGGGTKLEIK
7.70
